Parameter: self-cleavage kobs at 640 uM GlcN6P. Scope: all listed entries.
B1: glmS ribozyme (parent)
chain: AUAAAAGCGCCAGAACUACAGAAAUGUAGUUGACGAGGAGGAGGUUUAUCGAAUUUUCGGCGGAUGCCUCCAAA

- Variants of: B1
- assay.info: self-cleavage kobs at 640 uM GlcN6P; higher = faster cleavage; RNA array
- reported.conditions: with glucosamine-6-phosphate
Fewer inactive variants are shown than the library holds.

## Input Consider the variant `AUAAAAGCACCAGAACUACAGAAAUGUAGUUGAAGAGGAGGAGGUUUAUCGAAUUUUCGGCGGAUGCCUCCAAA` and give its recorded self-cleavage kobs at 640 uM GlcN6P.
## Output < 1e-05 s⁻¹

## Input Consider the variant `AUAAAAUCGCCAGAACUACAGAAAUGUAGUUGACGAGGAGGAGGUUUAUCUAAUUUUCGGCGGAUGCCUCCAAA` and give its recorded self-cleavage kobs at 640 uM GlcN6P.
## Output < 1e-05 s⁻¹

## Input Consider the variant `AUAAAAGCGCGUUAACUACAGAAAUGUAGUUGACGAGGAGGAGGUUUAUCGAAUUUUUGGCGGAUGCGUCCAAA` and give its recorded self-cleavage kobs at 640 uM GlcN6P.
## Output 0.000363 s⁻¹

## Input Consider the variant `AUAAAAGCGCCAGAACUACAGAAAUGUAGUCGACGAGGAAGAGGUUUAUCGAUUUUUCGGCGGAUGCCUCCAAA` and give its recorded self-cleavage kobs at 640 uM GlcN6P.
## Output 7.74e-05 s⁻¹
